biological target: DAT (sodium-dependent dopamine transporter) (Homo sapiens, UniProt Q01959); experiment: Inhibition of full-length recombinant human DAT expressed in CHOK1 cells assessed as reduction in [3H]dopamine uptake at 10 uM pretreated for 20 mins followed by [3H]dopamine addition measured after 10 mins by scintillation counting method relative to control; assay type: cell-based; settings: CHO-K1 cells expressing full-length recombinant human DAT, probe [3H]dopamine
Sequence (Q01959 whole entry): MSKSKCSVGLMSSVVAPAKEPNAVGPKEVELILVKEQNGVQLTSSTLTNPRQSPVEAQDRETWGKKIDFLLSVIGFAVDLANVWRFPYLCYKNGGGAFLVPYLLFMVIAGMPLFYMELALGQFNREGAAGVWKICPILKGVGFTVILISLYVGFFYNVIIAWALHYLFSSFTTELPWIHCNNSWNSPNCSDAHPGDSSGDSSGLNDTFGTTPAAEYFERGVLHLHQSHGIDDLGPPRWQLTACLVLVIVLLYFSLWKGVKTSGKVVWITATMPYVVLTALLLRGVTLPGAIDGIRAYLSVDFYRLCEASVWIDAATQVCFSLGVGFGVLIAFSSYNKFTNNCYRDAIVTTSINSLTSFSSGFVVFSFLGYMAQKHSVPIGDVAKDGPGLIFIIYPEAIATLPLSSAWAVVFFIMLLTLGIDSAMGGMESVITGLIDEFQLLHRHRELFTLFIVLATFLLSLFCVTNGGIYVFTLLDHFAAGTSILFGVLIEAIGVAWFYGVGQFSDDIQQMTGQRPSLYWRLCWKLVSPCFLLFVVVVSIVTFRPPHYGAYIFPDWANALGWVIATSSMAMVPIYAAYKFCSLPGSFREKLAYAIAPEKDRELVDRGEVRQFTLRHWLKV

# compound.structure, inhibition at 10 min, 10 µM [%]
records = [
    ("O=C(Nc1ccc(F)cn1)c1cc(Oc2cncnc2)cn2ncnc12", 42),
]

* * *

target: Metabotropic glutamate receptor 5 (Rattus norvegicus); assay: Negative allosteric modulation of rat mGlu5 receptor expressed in HEK293 cells assessed as inhibition of glutamate induced-calcium mobilization preincubated for 2.3 mins followed by glutamate addition measured after 1.7 mins by Fluo-4 AM dye based fluorescence assay
Sequence (P31424 whole entry): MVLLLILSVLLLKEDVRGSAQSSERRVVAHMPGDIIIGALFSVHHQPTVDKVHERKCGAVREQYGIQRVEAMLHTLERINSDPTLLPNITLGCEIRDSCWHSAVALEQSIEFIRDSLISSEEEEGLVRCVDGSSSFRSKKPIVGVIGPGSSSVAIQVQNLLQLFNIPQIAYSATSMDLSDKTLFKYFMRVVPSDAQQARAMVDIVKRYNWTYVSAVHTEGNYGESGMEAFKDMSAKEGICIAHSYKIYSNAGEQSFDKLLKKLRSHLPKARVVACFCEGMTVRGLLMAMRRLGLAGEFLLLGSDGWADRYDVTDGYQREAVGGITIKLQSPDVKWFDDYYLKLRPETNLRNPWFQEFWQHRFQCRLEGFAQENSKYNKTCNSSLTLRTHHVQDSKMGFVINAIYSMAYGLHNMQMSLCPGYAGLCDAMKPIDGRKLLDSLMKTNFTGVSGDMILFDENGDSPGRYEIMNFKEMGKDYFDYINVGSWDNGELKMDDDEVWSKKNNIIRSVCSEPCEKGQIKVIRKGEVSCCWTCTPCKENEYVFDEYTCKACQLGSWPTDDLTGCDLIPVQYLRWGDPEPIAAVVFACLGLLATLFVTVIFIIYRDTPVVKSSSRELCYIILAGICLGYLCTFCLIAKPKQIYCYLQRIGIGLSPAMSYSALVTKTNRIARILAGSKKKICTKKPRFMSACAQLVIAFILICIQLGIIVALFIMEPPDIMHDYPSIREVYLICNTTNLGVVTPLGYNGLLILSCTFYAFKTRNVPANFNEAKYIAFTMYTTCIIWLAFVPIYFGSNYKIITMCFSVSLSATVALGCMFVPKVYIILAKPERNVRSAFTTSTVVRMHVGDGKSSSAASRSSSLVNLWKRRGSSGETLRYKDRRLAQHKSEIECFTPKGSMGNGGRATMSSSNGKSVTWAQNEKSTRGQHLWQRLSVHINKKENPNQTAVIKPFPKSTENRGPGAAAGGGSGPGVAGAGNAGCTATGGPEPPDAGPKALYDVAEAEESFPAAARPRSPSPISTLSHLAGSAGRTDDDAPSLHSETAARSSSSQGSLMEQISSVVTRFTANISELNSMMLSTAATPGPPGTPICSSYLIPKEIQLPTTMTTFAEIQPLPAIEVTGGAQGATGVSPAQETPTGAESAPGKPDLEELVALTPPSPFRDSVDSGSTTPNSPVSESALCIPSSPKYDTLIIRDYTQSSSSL
Measured log10(IC50) values are reported for all entries that follow.
quantity.kind: log10(IC50) (log10 of the value in µM)

# compound.structure, tested.target, log10(IC50)
data = [
    ("O=C(Nc1ccc(F)cn1)c1cc(Oc2cncnc2)cn2cnnc12", "Metabotropic glutamate receptor 5 (Rattus norvegicus)", -0.49),
    ("Cc1nnc2c(C(=O)Nc3ccc(F)cn3)cc(Oc3cncc(F)c3)cn12", "Metabotropic glutamate receptor 5 (Rattus norvegicus)", -0.43),
    ("O=C(Nc1ccc(F)cn1)c1cc(Oc2cncc(F)c2)cn2cnnc12", "Metabotropic glutamate receptor 5 (Rattus norvegicus)", -1.57),
    ("O=C(Nc1ccc(F)cn1)c1cc(Oc2cncc(Cl)c2)cn2ncnc12", "Metabotropic glutamate receptor 5 (Rattus norvegicus)", -1.05),
    ("Cc1nc2c(C(=O)Nc3ccc(F)cn3)cc(Oc3cncc(F)c3)cn2n1", "Metabotropic glutamate receptor 5 (Rattus norvegicus)", 0.15),
    ("COc1ccc(NC(=O)c2cc(Oc3cncc(F)c3)cn3ccnc23)nc1", "Metabotropic glutamate receptor 5 (Rattus norvegicus)", -1.26),
    ("O=C(Nc1ccc(F)cn1)c1cc(Oc2cncc(OC(F)F)c2)cn2ncnc12", "Metabotropic glutamate receptor 5 (Rattus norvegicus)", -0.89),
    ("O=C(Nc1ccc(F)cn1)c1cc(Oc2cncc(F)c2)cn2ncnc12", "Metabotropic glutamate receptor 5 (Rattus norvegicus)", -1.70),
    ("O=C(Nc1ccc(F)cn1)c1cc(Oc2cnc(F)c(F)c2)cn2ncnc12", "Metabotropic glutamate receptor 5 (Rattus norvegicus)", -1.25),
    ("O=C(Nc1ccc(F)cn1)c1cc(Oc2cncc(F)c2)cn2ccnc12", "Metabotropic glutamate receptor 5 (Rattus norvegicus)", -1.70),
]

* * *

Below is a list of entries, each paired with its recorded inhibition at 3 h, 10 µM value.
biological target: DAT (sodium-dependent dopamine transporter) (Homo sapiens); assay: in vitro; conditions: CHO-K1 cells expressing recombinant human DAT, probe [125I]RTI-55
quantity.kind: inhibition at 3 h, 10 µM (%)

# compound.structure, assay.result
measured = [
    ("O=C(Nc1ccc(F)cn1)c1cc(Oc2cncc(F)c2)cn2cnnc12", 91),
    ("O=C(Nc1ccc(F)cn1)c1cc(Oc2cncc(F)c2F)cn2ncnc12", 87),
    ("O=C(Nc1ccc(F)cn1)c1cc(Oc2cncnc2)cn2ncnc12", 60),
    ("O=C(Nc1ccc(F)cn1)c1cc(Oc2cncc(F)c2)cn2ncnc12", 89),
]

* * *

molecular target: UniProt:P31424; assay: Negative allosteric modulation of rat mGlu5 receptor expressed in HEK293 cells assessed as inhibition of glutamate induced-calcium mobilization preincubated for 2.3 mins followed by glutamate addition measured after 1.7 mins by Fluo-4 AM dye based fluorescence assay
pIC50: −log10 of the molar value.

# compound.structure, pIC50
data = [
    ("Cc1ccc(NC(=O)c2cc(Oc3cncc(F)c3)cn3ccnc23)nc1", 7.13),
    ("O=C(Nc1ccc(F)cn1)c1cc(Oc2cncnc2)cn2ncnc12", 7.13),
    ("O=C(Nc1ccc(F)cn1)c1cc(Oc2cncc(F)c2F)cn2ncnc12", 7.39),
    ("O=C(Nc1ccc(F)cn1)c1cc(Oc2cc(F)cnc2F)cn2ncnc12", 6.93),
    ("O=C(Nc1cccc(F)n1)c1cc(Oc2cncc(F)c2)cn2ccnc12", 7.42),
]

* * *

molecular target: Metabotropic glutamate receptor 5 (Rattus norvegicus) (UniProt P31424); assay: Negative allosteric modulation of rat mGlu5 receptor expressed in HEK293 cells assessed as inhibition of glutamate induced-calcium mobilization at 30 uM preincubated for 2.3 mins followed by glutamate addition measured after 1.7 mins by Fluo-4 AM dye based fluorescence assay relative to glutamate; format: functional, cell-based
Sequence (P31424 21-1203 limits assumed): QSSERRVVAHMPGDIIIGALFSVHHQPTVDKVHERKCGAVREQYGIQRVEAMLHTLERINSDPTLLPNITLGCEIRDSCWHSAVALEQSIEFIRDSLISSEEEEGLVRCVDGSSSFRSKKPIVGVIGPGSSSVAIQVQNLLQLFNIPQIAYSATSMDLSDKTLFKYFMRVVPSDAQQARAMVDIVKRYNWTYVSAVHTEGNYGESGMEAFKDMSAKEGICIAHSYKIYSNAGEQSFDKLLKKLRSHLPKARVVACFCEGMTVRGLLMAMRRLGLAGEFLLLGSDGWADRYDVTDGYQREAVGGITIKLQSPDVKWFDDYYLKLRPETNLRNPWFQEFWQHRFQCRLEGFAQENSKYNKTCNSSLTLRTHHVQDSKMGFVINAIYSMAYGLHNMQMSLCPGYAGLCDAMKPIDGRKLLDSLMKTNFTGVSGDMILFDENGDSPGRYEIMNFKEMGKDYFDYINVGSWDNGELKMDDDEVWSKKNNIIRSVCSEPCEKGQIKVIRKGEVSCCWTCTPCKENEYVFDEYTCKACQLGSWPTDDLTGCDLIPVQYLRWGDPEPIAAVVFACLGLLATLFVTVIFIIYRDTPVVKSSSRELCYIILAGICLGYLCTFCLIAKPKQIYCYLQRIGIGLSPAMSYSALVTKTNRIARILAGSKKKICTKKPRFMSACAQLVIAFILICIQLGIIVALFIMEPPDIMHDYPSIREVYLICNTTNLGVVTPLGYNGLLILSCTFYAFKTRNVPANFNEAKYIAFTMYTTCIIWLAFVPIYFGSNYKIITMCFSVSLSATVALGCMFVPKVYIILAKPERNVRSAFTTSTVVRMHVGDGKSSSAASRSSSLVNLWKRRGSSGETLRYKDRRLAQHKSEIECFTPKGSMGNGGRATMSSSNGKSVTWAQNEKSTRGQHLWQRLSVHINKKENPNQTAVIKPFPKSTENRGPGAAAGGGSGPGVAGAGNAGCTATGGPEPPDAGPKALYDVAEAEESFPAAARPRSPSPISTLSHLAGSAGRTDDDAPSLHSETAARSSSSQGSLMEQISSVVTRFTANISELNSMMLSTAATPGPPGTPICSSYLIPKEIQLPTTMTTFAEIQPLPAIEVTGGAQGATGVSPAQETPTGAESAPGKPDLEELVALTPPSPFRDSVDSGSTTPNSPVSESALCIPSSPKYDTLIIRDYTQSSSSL

# compound.structure, %max [%]
measured = [
    ("O=C(Nc1ccc(F)cn1)c1cc(Oc2cncc(F)c2)cn2ncnc12", 1.5),
    ("O=C(Nc1ccc(F)cn1)c1cc(Oc2cncc(F)c2F)cn2ncnc12", 2),
    ("O=C(Nc1ccc(F)cn1)c1cc(Oc2cncnc2)cn2ncnc12", 1.5),
    ("O=C(Nc1ccc(F)cn1)c1cc(Oc2cncc(F)c2)cn2cnnc12", 2.3),
    ("Cc1ccc(NC(=O)c2cc(Oc3cncc(F)c3)cn3ccnc23)nc1", 1.4),
]

* * *

Target: Cytochrome P450 1A2 (Homo sapiens)
Sequence (P05177 whole entry): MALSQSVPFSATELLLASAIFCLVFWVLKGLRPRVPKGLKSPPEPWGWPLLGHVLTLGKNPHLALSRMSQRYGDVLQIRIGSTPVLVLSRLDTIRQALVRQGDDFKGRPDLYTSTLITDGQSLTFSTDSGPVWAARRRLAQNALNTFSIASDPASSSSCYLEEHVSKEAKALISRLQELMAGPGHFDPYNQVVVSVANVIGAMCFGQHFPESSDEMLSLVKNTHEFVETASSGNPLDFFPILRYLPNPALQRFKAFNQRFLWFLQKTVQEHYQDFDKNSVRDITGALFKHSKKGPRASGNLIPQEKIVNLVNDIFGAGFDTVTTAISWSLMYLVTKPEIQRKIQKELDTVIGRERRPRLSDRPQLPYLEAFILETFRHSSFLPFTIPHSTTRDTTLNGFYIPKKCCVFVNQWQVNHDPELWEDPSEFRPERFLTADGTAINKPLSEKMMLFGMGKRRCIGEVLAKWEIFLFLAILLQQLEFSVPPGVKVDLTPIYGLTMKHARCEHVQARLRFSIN
log10 of IC50: recorded values
quantity.kind: log10 of IC50 (log10 of the value in nM)

# compound.structure, tested.target, log10 of IC50
measured = [
    ("O=C(Nc1cccc(F)n1)c1cc(Oc2cncc(F)c2)cn2ccnc12", "Cytochrome P450 1A2 (Homo sapiens)", 2.78),
    ("COc1ccc(NC(=O)c2cc(Oc3cncc(F)c3)cn3ccnc23)nc1", "Cytochrome P450 1A2 (Homo sapiens)", 3.04),
    ("O=C(Nc1ccc(F)cn1)c1cc(Oc2cncc(F)c2F)cn2ncnc12", "Cytochrome P450 1A2 (Homo sapiens)", 3.61),
    ("O=C(Nc1ccc(F)cn1)c1cc(Oc2cncc(F)c2)cn2ccnc12", "Cytochrome P450 1A2 (Homo sapiens)", 2.90),
    ("O=C(Nc1ccc(F)cn1)c1cc(Oc2cncc(F)c2)cn2ncnc12", "Cytochrome P450 1A2 (Homo sapiens)", 4.18),
]

* * *

assay: Cmax in rat at 10 mg/kg, po; assay type: ADME, organism-based; design: dose 10 mg/kg, route oral; conditions: in vivo
Listing of recorded Cmax by entry.
quantity.kind: Cmax (nM)

# compound.structure, assay.result
measured = [
    ("O=C(Nc1ccc(F)cn1)c1cc(Oc2cncc(F)c2)cn2ncnc12", 673),
    ("O=C(Nc1ccc(F)cn1)c1cc(Oc2cncc(F)c2)cn2cnnc12", 573),
]

* * *

assay: Tmax in rat at 10 mg/kg, po; type: ADME, organism-based; conditions: in vivo
Here the recorded Tmax is given for each entry.
quantity.kind: Tmax (h)

# compound.structure, quantity.kind, assay.result
records = [
    ("O=C(Nc1ccc(F)cn1)c1cc(Oc2cncc(F)c2)cn2cnnc12", "Tmax", 3),
    ("O=C(Nc1ccc(F)cn1)c1cc(Oc2cncc(F)c2)cn2ncnc12", "Tmax", 3),
]

* * *

experiment: Oral bioavailability in rat at 10 mg/kg; type: ADME, organism-based; settings: in vivo
Reported values of bioavailability for individual entries

# compound.structure, output.unit, bioavailability
measured = [
    ("O=C(Nc1ccc(F)cn1)c1cc(Oc2cncc(F)c2)cn2cnnc12", "%", 17),
    ("O=C(Nc1ccc(F)cn1)c1cc(Oc2cncc(F)c2)cn2ncnc12", "%", 20),
]

* * *

test: Half life in rat at 1 mg/kg, iv; assay type: ADME, organism-based; settings: in vivo
quantity.kind: half-life

# compound.structure, quantity.kind, assay.result
measured = [
    ("O=C(Nc1ccc(F)cn1)c1cc(Oc2cncc(F)c2)cn2cnnc12", "half-life", "1.32 h"),
    ("O=C(Nc1ccc(F)cn1)c1cc(Oc2cncc(F)c2)cn2ncnc12", "half-life", "1.35 h"),
]
